Answer each item with its documented Extrapolated.
experiment: IV and oral pharmacokinetics in male Sprague-Dawley rats; assay type: in vivo, rat; conditions: IV Dose (1 mg/kg), rat plasma
// note: answer is a bare numeric in %

Given item Cc1sc2c(c1C)C(c1ccc(Cl)cc1)=N[C@@H](CC(=O)OCC(C)O)c1nnc(C)n1-2 (stereo partly shown) , the value recorded as its Extrapolated is 4.62

Given item "Cc1sc2c(c1C)C(c1ccc(Cl)cc1)=N[C@@H](CC(=O)OCCCO)c1nnc(C)n1-2" , the value recorded as its Extrapolated is 0.28

Given item "Cc1sc2c(c1C)C(c1ccc(Cl)cc1)=N[C@@H](CC(=O)OCCCCCCO)c1nnc(C)n1-2" , the value recorded as its Extrapolated is 0.75

Given item Cc1sc2c(c1C)C(c1ccc(Cl)cc1)=N[C@@H](CC(=O)OC1CCC(O)CC1)c1nnc(C)n1-2 (stereo partly shown) , the value recorded as its Extrapolated is 0.41

====

system: RIN-14B; assay: Cell Titer-Glo rat insulinoma cell assay, RIN-14B; format: cell-based; details: cell proliferation, 168-192 h culture
attribute.measured: pIC50
Field pIC50 (float): negative decimal logarithm of the concentration in molar.

Given item Cc1sc2c(c1C)C(c1ccc(Cl)cc1)=N[C@@H](CC(=O)OCC(C)O)c1nnc(C)n1-2 (some centres unmarked) , the value recorded as its pIC50 is 7.58

Given item Cc1sc2c(c1C)C(c1ccc(Cl)cc1)=N[C@@H](CC(=O)OC1CCC(O)CC1)c1nnc(C)n1-2 (some centres unmarked) , the value recorded as its pIC50 is 8.03

====

test: IV and oral pharmacokinetics in male Sprague-Dawley rats; format: in vivo, rat; conditions: male, Sprague-Dawley; IV Dose (1 mg/kg), rat plasma
attribute.measured: AUC(0-t)

Given item Cc1sc2c(c1C)C(c1ccc(Cl)cc1)=N[C@@H](CC(=O)OC1CCC(O)CC1)c1nnc(C)n1-2 (stereo partly drawn) [Compound 1] , the value recorded as its AUC(0-t) is 1500 ng·h/mL

Given item Cc1sc2c(c1C)C(c1ccc(Cl)cc1)=N[C@@H](CC(=O)OCCCCCCO)c1nnc(C)n1-2 [Compound 5] , the value recorded as its AUC(0-t) is 512 ng·h/mL

Given item Cc1sc2c(c1C)C(c1ccc(Cl)cc1)=N[C@@H](CC(=O)OCCCO)c1nnc(C)n1-2 [Compound 4] , the value recorded as its AUC(0-t) is 782 ng·h/mL

====

assay: IV and oral pharmacokinetics in male Sprague-Dawley rats; type: in vivo, rat; settings: male, Sprague-Dawley; PO Dose (5 mg/kg), rat plasma
attribute.measured: half-life (h)
// note: answer is a bare numeric in h

Given item Cc1sc2c(c1C)C(c1ccc(Cl)cc1)=N[C@@H](CC(=O)OCC(C)O)c1nnc(C)n1-2 (some centres unmarked) , the value recorded as its half-life is 1.78

Given item "Cc1sc2c(c1C)C(c1ccc(Cl)cc1)=N[C@@H](CC(=O)OCCCO)c1nnc(C)n1-2" , the value recorded as its half-life is 1.83

====

experiment: IV and oral pharmacokinetics in male Sprague-Dawley rats; format: in vivo, rat; conditions: male, Sprague-Dawley; IV Dose (1 mg/kg), rat plasma
attribute.measured: AUC(0-inf) (ng·h/mL)
// note: answer is a bare numeric in ng·h/mL

Given item Cc1sc2c(c1C)C(c1ccc(Cl)cc1)=N[C@@H](CC(=O)OC1CCC(O)CC1)c1nnc(C)n1-2 (stereo partly drawn) , the value recorded as its AUC(0-inf) is 1500

Given item "Cc1sc2c(c1C)C(c1ccc(Cl)cc1)=N[C@@H](CC(=O)OCCCCCCO)c1nnc(C)n1-2" , the value recorded as its AUC(0-inf) is 516

Given item "Cc1sc2c(c1C)C(c1ccc(Cl)cc1)=N[C@@H](CC(=O)OCCCO)c1nnc(C)n1-2" , the value recorded as its AUC(0-inf) is 784
